# procedure details: in vivo
# assay context: male, Sprague-Dawley, rat, retina, iv
measurement type: concentration at 0.5 h (µM)
Just the number please, in µM, no unit attached.

Quick one: concentration at 0.5 h for CC(C)c1cc(-c2nnc(S)n2-c2ccc3c(ccn3C)c2)c(O)cc1O [Compound 1] ?
10.4

----------
# procedure details: in vivo
# assay context: male, Sprague-Dawley, rat, plasma, iv
measurement type: concentration at 0.5 h
I'd appreciate it if you wrote the number followed by its unit.

Query (compound): CC(C)c1cc(-c2nnc(S)n2-c2ccc3c(ccn3C)c2)c(O)cc1O [Compound 1] ; field requested: concentration at 0.5 h
19.5 µM

----------
# System: HER2 in BT-474 cells
# procedure details: HER2 degradation assay (anti-HER2 FITC flow cytometry)
# Assay type: cell-based
# assay context: 24 h treatment
pIC50: −log10 of the molar value.
measurement type: pIC50

Quick one: pIC50 of CCNC(=O)c1noc(-c2cc(C(C)C)c(O)cc2O)c1-c1ccc(CN2CCOCC2)cc1 ?
> 7.52

What does the record list as pIC50 for C=CCNC1=C2C[C@@H](C)C[C@H](OC)[C@H](O)[C@@H](C)/C=C(\C)[C@H](OC(N)=O)[C@@H](OC)/C=C\C=C(/C)C(=O)NC(=CC1=O)C2=O ?
6.82 to 7.00

----------
# procedure details: in vivo
# assay context: male, Sprague-Dawley, rat, retina, iv
measurement type: concentration at 6 h (nM)
# value in nM; strip the unit string

Quick check: concentration at 6 h of CC(C)c1cc(-c2nnc(S)n2-c2ccc3c(ccn3C)c2)c(O)cc1O ?
2240

----------
What Kp at 0.5 h was measured for each of the following?
# procedure details: in vivo
# assay context: male, Sprague-Dawley, rat, in vivo, iv
No unit in the answer, only the number.

Param item = CCNC(=O)c1noc(-c2cc(C(C)C)c(O)cc2O)c1-c1ccc(CN2CCOCC2)cc1 ; retrieve measured Kp at 0.5 h.
4.24

So what's the measured Kp at 0.5 h for this one? CO[C@H]1/C=C\C=C(/C)C(=O)NC2=CC(=O)C(NCCN(C)C)=C(C[C@@H](C)C[C@H](OC)[C@H](O)[C@@H](C)/C=C(\C)[C@@H]1OC(N)=O)C2=O
6.79
